- Tested on: M. mycetomatis genome strain MM55
- PROTOCOL_DESCRIPTION: CLSI M38-A2 based in vitro susceptibility screening (XTT or resazurin), growth at fixed concentration
- Assay type: cell-based, Madurella mycetomatis
- APPLIED_CONDITIONS: Madurella mycetomatis, 25 uM, mean of three replicates; read-out: Percentage survival at 25um, 25 uM mean
Form field: activity at 25 µM (one value per entry).
Please reply with the bare figure in % and do not write the unit itself.

>  <COMPOUND>
O=C(CC1Sc2ncnn2C1=O)Nc1ccc(Br)cc1 (centres unmarked)

>  <MEASURED_QUANTITY>
activity at 25 µM

>  <QUANTITATIVE_READOUT>
63.2

$$$$
>  <COMPOUND>
NC1C2CC3CC(C2)CC1C3 (centres unmarked)

>  <MEASURED_QUANTITY>
activity at 25 µM

>  <QUANTITATIVE_READOUT>
83.1

$$$$
>  <COMPOUND>
Cc1[nH]c2ccccc2c1CC(=O)N[C@@H](Cc1ccccc1)C(=O)N(C)c1ccccc1

>  <MEASURED_QUANTITY>
activity at 25 µM

>  <QUANTITATIVE_READOUT>
85.4

$$$$

Task item: Quick check: activity at 25 µM of N=c1n(CCN2CCCCC2)c2ccccc2n1CC(O)COc1ccc(Cl)cc1Cl (centres unmarked) ?
Reply: -4.41

Task item: # activity at 25 µM lookup, item COc1ccccc1CN[C@H]1C2CCN(CC2)[C@H]1C(c1ccccc1)c1ccccc1
Reply: 83.2

====

- Tested on: M. mycetomatis genome strain MM55
- PROTOCOL_DESCRIPTION: CLSI M38-A2 based in vitro susceptibility screening (XTT or resazurin), growth at fixed concentration
- Assay type: cell-based, Madurella mycetomatis
- APPLIED_CONDITIONS: Madurella mycetomatis, 100 uM, first replicate column; read-out: Percentage survival at 100um, 100 uM A
The class of a record is decided solely by its measured activity at 100 µM; consult small value = under 60%, mid value = from 60% up to 90%, large value = 90% and over

Worked examples follow.
>  <COMPOUND>
Oc1cccc(C(Nc2nccs2)c2ccc3cccnc3c2O)c1 (stereo not drawn)

>  <CLASS_NAME>
small value

$$$$
>  <COMPOUND>
O=C(O)[C@H]1C2CCC(CC2)[C@@H]1Nc1nc(-c2c[nH]c3ncc(F)cc23)ncc1F

>  <CLASS_NAME>
large value

$$$$
>  <COMPOUND>
O=c1oc2ccc(Br)cc2cc1CSc1ncc[nH]1

>  <CLASS_NAME>
mid value

$$$$
>  <COMPOUND>
NC(=O)c1nccn([C@@H]2O[C@H](CO)[C@@H](O)[C@H]2O)c1=O

>  <CLASS_NAME>
large value

$$$$
>  <COMPOUND>
O=C(/C=C/n1cnc(-c2cc(C(F)(F)F)cc(C(F)(F)F)c2)n1)NNc1cnccn1

>  <CLASS_NAME>
large value

$$$$
>  <COMPOUND>
CCOC(=O)/C=C/[C@H](C[C@@H]1CCNC1=O)NC(=O)[C@H](CC)n1cccc(NC(=O)c2cc(C)on2)c1=O

>  <CLASS_NAME>
mid value

$$$$
>  <COMPOUND>
CCc1cc(CCCOc2c(C)cc(-c3noc(C(F)(F)F)n3)cc2C)on1

>  <CLASS_NAME>
mid value

$$$$
>  <COMPOUND>
Cc1oncc1C(=O)Nc1ccc(C(F)(F)F)cc1

>  <CLASS_NAME>
small value

$$$$
>  <COMPOUND>
CC(C)N(c1cc(-c2ccccc2)sc1C(=O)O)C(=O)[C@H]1CC[C@H](C)CC1

>  <CLASS_NAME>
mid value

$$$$
>  <COMPOUND>
COc1ccc(-n2cnc3cc(NCc4ccco4)ccc32)cc1

>  <CLASS_NAME>
small value

$$$$

Task item: Class for OCCC#Cc1nc(-c2ccc(F)cc2)c(-c2ccncc2)n1CCCc1ccccc1 ?
Reply: small value

Task item: Form: Item = CCc1cc(CCC(=O)Nc2ccccc2O)c(=O)[nH]c1C ; Class = ?
Reply: mid value

Task item: Which bin should I file CC[N+]1(C/C2=C/CCCCCC2)CCC(NC(=O)C2c3cc(Cl)ccc3Oc3ccc(Cl)cc32)CC1 (stereo not drawn) under?
Reply: small value

Ref: paper PMC8815882
